Settings: 293.15 K; 20000 kPa; Liquid
Documented mass density across a set of molecules
Entry rule: numbers only, all in kg/m3.

Reference set, count: 3
CCn1cc[n+](C)c1.COS(=O)(=O)[O-] [1-ethyl-3-methylimidazolium methylsulfate] : 1299.9
CCOS(=O)(=O)[O-].CCn1cc[n+](C)c1 [1-ethyl-3-methylimidazolium ethyl sulfate] : 1256.5
CCn1cc[n+](CC)c1.O=S(=O)([N-]S(=O)(=O)C(F)(F)F)C(F)(F)F [1,3-diethylimidazolium bis[(trifluoromethyl)sulfonyl]imide] : 1484.2

Proceeding to the next molecule to report its mass density.
Query: Can you share its mass density? I mean this molecule: `CCCCCCCCCCn1cc[n+](C)c1.O=S(=O)([N-]S(=O)(=O)C(F)(F)F)C(F)(F)F`
Reply: 1298.1

###

Conditions: 298.15 K; 5000 kPa; Liquid
measured metric: mass density (kg/m3)
Give just the number in kg/m3; leave the unit off.

Below: 3 compounds and their reported mass density.
CCn1cc[n+](C)c1.COS(=O)(=O)[O-] [1-ethyl-3-methylimidazolium methylsulfate] : 1290.1
CCOS(=O)(=O)[O-].CCn1cc[n+](C)c1 [1-ethyl-3-methylimidazolium ethyl sulfate] : 1246.3
CCCCCCCCCCn1cc[n+](C)c1.O=S(=O)([N-]S(=O)(=O)C(F)(F)F)C(F)(F)F : 1282.7

Let's switch to this compound now.
Query: Item under review: CCn1cc[n+](CC)c1.O=S(=O)([N-]S(=O)(=O)C(F)(F)F)C(F)(F)F [1,3-diethylimidazolium bis[(trifluoromethyl)sulfonyl]imide] . Reported mass density?
Reply: 1467.6

###

mass density by entry:
Conditions: 393.15 K; 2500 kPa; Liquid
Numbers after ± are expanded uncertainties.
Kindly format the answer as number then unit.

The examples below pair each entry with its known result.
CCn1cc[n+](CC)c1.O=S(=O)([N-]S(=O)(=O)C(F)(F)F)C(F)(F)F [1,3-diethylimidazolium bis[(trifluoromethyl)sulfonyl]imide] : 1367.2 ± 2.7 kg/m3
CCn1cc[n+](C)c1.COS(=O)(=O)[O-] [1-ethyl-3-methylimidazolium methylsulfate] : 1219.2 ± 2.4 kg/m3
CCCCCCCCCCn1cc[n+](C)c1.O=S(=O)([N-]S(=O)(=O)C(F)(F)F)C(F)(F)F : 1195.8 ± 2.3 kg/m3

--- query ---
Query: Request the reported mass density associated with CCOS(=O)(=O)[O-].CCn1cc[n+](C)c1 [1-ethyl-3-methylimidazolium ethyl sulfate]
Reply: 1178 ± 2.3 kg/m3

###

Details: 333.15 K; 35000 kPa; Liquid
measured metric: mass density (kg/m3)
Hi! Could you send only the number? It should be in kg/m3, unit omitted.

CCOS(=O)(=O)[O-].CCn1cc[n+](C)c1 [1-ethyl-3-methylimidazolium ethyl sulfate] : 1233.6
CCn1cc[n+](C)c1.COS(=O)(=O)[O-] [1-ethyl-3-methylimidazolium methylsulfate] : 1276.1
CCCCCCCCCCn1cc[n+](C)c1.O=S(=O)([N-]S(=O)(=O)C(F)(F)F)C(F)(F)F : 1273

Alright, here's another molecule for you.
Query: Look up mass density: CCn1cc[n+](CC)c1.O=S(=O)([N-]S(=O)(=O)C(F)(F)F)C(F)(F)F [1,3-diethylimidazolium bis[(trifluoromethyl)sulfonyl]imide]
Reply: 1454.8
